yeast fitness values, listed per item
B1: tRNA (parent)
chain: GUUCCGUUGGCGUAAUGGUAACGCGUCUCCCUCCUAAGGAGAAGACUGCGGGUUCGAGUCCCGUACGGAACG

# Variants of: B1
# PROCEDURE_DETAILS: yeast fitness relative to wild type (ratio to wild type); higher = fitter; tRNA-Arg(CCU), competitive growth, 37 C, YPD
Variants at the floor of the assay were thinned out.

[
  {
    "MUTATION_CODE": "G23C A42U A43G A65U",
    "VALUE_TYPE": "yeast fitness",
    "TEST_RESULT": "≤ 0.5"
  }
]

Query: Fill in yeast fitness for record U26A A36U C49A
Reply: ≤ 0.5

Query: Check the records and state yeast fitness for A15C G18A A20U
Reply: ≤ 0.5

Query: Consider the variant C11U A21C A42C A69C . State its measured yeast fitness.
Reply: ≤ 0.5

Query: Entry G48C C62G A65U needs its yeast fitness filled in; supply it.
Reply: ≤ 0.5

Query: Return reported yeast fitness. Input variant: C11G A15C A70C
Reply: ≤ 0.5

Query: Please indicate yeast fitness recorded for C22G C49U
Reply: 0.986
